- testTarget: T1, human IL-18 binding protein (human, UniProt O95998 31-194)
- T1 sequence (looked up): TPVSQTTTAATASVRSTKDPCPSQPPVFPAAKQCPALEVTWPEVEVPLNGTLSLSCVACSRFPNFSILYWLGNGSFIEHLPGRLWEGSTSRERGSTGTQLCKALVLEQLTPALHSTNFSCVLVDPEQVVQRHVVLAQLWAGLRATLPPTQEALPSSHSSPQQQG
- experimentalDetails: cell-based or functional assay
Catalogue of binders with associated HEK-Blue activity, +100 nM BP, DF-1,000,000
metricName: HEK-Blue activity, +100 nM BP, DF-1,000,000

binder	testValue
yeast display IL-18 variant E6D, S36F, K53T, S55M, R58K (ligand) YFGKLDSKLSVIRNLNDQVLFIDQGNRPLFEDMTDFDMRDNAPRTIFIISMYTDMQPKGMAVTISVKSEKISTLSSENKIISFKEMNPPDNIKDTKSDIIFFQRSVPGHDNKMQFESSSYEGYFLASEKERDLFKLILKKEDELGDRSIMFTVQNED	0.09
yeast display IL-18 variant K53T, S55A (ligand) YFGKLESKLSVIRNLNDQVLFIDQGNRPLFEDMTDSDMRDNAPRTIFIISMYTDAQPRGMAVTISVKSEKISTLSSENKIISFKEMNPPDNIKDTKSDIIFFQRSVPGHDNKMQFESSSYEGYFLASEKERDLFKLILKKEDELGDRSIMFTVQNED	0.32
